kon listing for selected binders.
assayed.system: T1, human IL-25 (human, UniProt Q9H293 33-177)
T1 construct: ELISA used bought R&D systems #1258-IL-025/CF; Treated as one molecule; also called IL-17E; human IL-17E
T1 sequence (looked up): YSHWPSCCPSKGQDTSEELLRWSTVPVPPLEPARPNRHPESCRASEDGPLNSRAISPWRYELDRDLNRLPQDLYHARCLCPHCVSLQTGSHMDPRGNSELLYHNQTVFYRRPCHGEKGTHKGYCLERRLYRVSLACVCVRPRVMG
protocol.description: SPR, Biacore T200; antibody captured by anti-human Fc, IL-25 as analyte
I only need the number, in M⁻¹ s⁻¹, no unit after it.

Past entries and their recorded results:
| binder | readout.label | recorded.result |
| --- | --- | --- |
| VH1-1 + VL2-1 (humanized anti-IL-25 antibody formed by VH1-1 and VL2-1) (antibody, V domains shown) VH: QVTLKESGPTLVKPTQTLTLTCTFSGFSLSTSGMGLGWIRQPPGKALEWLAHIWWDDVKHYKPALKSRLTITKDTSKNQVVLTMTNVDPVDTATYYCARMGQLHYYGYDYAMDYWGQGTLVTVSS VL: DIQLTQSPSFLSASVGDRVTITCSASSSVSYMYWYQQKPGKAPKPLIYRTSNLASGVPSRFSGSGSGTEYTLTISSMQPEDFATYYCQLYHSYPPTWTFGQGTKLEIK | kon | 957000 |
| VH1-1 + VL1-2 (humanized anti-IL-25 antibody formed by VH1-1 and VL1-2) (antibody, V domains shown, Captured by anti-human Fc gamma antibody in SPR) VH: QVTLKESGPTLVKPTQTLTLTCTFSGFSLSTSGMGLGWIRQPPGKALEWLAHIWWDDVKHYKPALKSRLTITKDTSKNQVVLTMTNVDPVDTATYYCARMGQLHYYGYDYAMDYWGQGTLVTVSS VL: EIVLTQSPATLSASPGERVTISCSASSSVSYMYWYQQKPGQAPRPLIYRTSNLASGVPARFSGSGSGTDYTLTISSMEPEDFATYYCQLYHSYPPTWTFGQGTKLEIK | kon | 1.06e+06 |

Consider the additional binder presented here.
Query :: Given murine anti-IL-25 monoclonal antibody 18H3 (antibody, V domains shown, also called parental antibody; parental murine mAb) VH: QVTLKESGPGILQPSQTLSLTCSFSGFSLSTSGMGLGWIRQPSGKGLEWLAHIWWDDVKHYKPALKSRLTISKDISSSQVFLTIASVDTADTATYYCARMGQLHYYGYDYAMDYWGQGTSVTVSS VL: QIVLTQSPAIMSASPGEKVTISCSASSSVSYMYWYQQKPGSSPKPWIYRTSNLASGVPARFSGSGSGTSYSLTISSMEAEDAATYYCQLYHSYPPTWTFGGGTKLEIK , state its recorded kon.
Result :: 785000
